Biological target: cathepsin L (Homo sapiens, UniProt P07711)
Sequence (P07711 114-333): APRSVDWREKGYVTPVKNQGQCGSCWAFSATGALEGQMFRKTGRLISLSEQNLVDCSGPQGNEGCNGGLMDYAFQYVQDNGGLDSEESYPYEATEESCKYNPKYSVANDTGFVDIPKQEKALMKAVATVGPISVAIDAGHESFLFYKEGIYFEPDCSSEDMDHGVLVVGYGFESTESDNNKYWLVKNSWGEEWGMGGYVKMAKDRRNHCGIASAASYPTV
Format: biochemical
Set-up: human cathepsin L purified from human liver (Sigma Aldrich); purchased Sigma Aldrich; host or cells: human liver (tissue-purified)
Listed next: entries and their corresponding percentage inhibition against Nipah peptide.
# value in %; strip the unit string

A selection of reference data follows.
>>> measured("O=C(Nc1ccc(F)c(Cl)c1)Nc1nnc(C(F)(F)F)s1")
54.7
>>> measured("N#CSc1ccc(NC(=O)CSc2nc3ccccc3[nH]2)cc1")
41.1
>>> measured("N#Cc1ccc(NC(=O)Nc2ccc(Cl)cc2)cc1")
57.8

Now, please, on to the next compound.
Return reported percentage inhibition against Nipah peptide; argument: `Cc1c(C#N)c2ccccc2n1CC(=O)NCc1ccc2c(c1)OCO2`
54.1

---

Listed next: entries and their corresponding Inhibition of cleavage of Hendra peptide by Cathepsin-L.
Molecular target: cathepsin L (Homo sapiens, UniProt P07711)
Type: biochemical
Set-up: human cathepsin L purified from human liver (Sigma Aldrich); purchased Sigma Aldrich; host or cells: human liver (tissue-purified)
# value in %; strip the unit string

>>> measured("N#CSc1ccc(NC(=O)CSc2nc3ccccc3[nH]2)cc1 [Compound 6572698]")
21.6
>>> measured("O=c1[nH]c2ccc(S(=O)(=O)Nc3ccc(Cl)c(Cl)c3)cc2o1 [Compound 7914021]")
25.4
>>> measured("CNS(=O)(=O)c1ccc(NC(=O)Nc2ccc(F)c(Cl)c2)cc1 [Compound 7790059]")
12.4
>>> measured("COC(=O)CN(C#N)c1nc(NC(C)C)nc(NC(C)C)n1 [Compound 5705213]")
84.3
>>> measured("COc1ccc(OC)c(NC(=O)Nc2ccc(C(F)(F)F)cc2)c1 [Compound 7808526]")
"−4.08"
>>> measured("O=C(Nc1ccc2c(c1)OCO2)c1cc(-c2cccnc2)nc2ccc(Cl)cc12 [Compound 7924029]")
26.3
>>> measured("N#Cc1ccc(NC(=O)Nc2ccc(Cl)cc2)cc1 [Compound 7910528, 1-(4-chlorophenyl)-3-(4-cyanophenyl)urea]")
12.1

Now, please, on to the next compound.
Return reported Inhibition of cleavage of Hendra peptide by Cathepsin-L; argument: Cc1c(Sc2nc3ccccc3[nH]2)c(=O)[nH]c2cc3c(cc12)OCO3 [Compound 7665576]
37.9

---

Target: cathepsin L (Homo sapiens, UniProt P07711)
Format: biochemical
Set-up: human cathepsin L purified from human liver (Sigma Aldrich); purchased Sigma Aldrich; host or cells: human liver (tissue-purified)
QUANTITY_NAME: Inhibition of cleavage of SARS peptide by Cathepsin-L (%)
# value in %; strip the unit string

>>> measured("Cc1ccc(-c2nc3ccccc3[nH]2)cc1NC(=O)c1ccc2c(c1)OCO2 [Compound 7793889]")
76.5

Short answer please: Inhibition of cleavage of SARS peptide by Cathepsin-L, cathepsin L (Homo sapiens, UniProt P07711), entry CN(C)c1ccc(C(O)(c2ccc(N(C)C)cc2)c2ccc(N(C)C)cc2)cc1 [Compound 5152606]
82.15

Subsequent entry: Cc1cc(C(=O)Nc2cccnc2)sc1-c1ccccc1 [Compound 7948346]
72.4

Subsequent entry: COC(=O)CN(C#N)c1nc(NC(C)C)nc(NC(C)C)n1 [Compound 5705213]
79.8

Subsequent entry: Cc1c(Sc2nc3ccccc3[nH]2)c(=O)[nH]c2cc3c(cc12)OCO3 [Compound 7665576]
60.7

---

Test system: EBOV-GP pseudotyped virus
Test: microbe, parasite or virus in culture
Assay type: cell-based, Ebola virus
Conditions: Zaire ebolavirus, 72 h, read-out: inhibition of EBOV pseudotyped virus entry
QUANTITY_NAME: inhibition at 10 µM (%)
# value in %; strip the unit string

A selection of reference data follows.
>>> measured("COC(=O)CN(C#N)c1nc(NC(C)C)nc(NC(C)C)n1")
39.8
>>> measured("O=C(Nc1cccc(C(F)(F)F)c1)Nc1ccc(Cl)c(Cl)c1")
60.5
>>> measured("O=c1[nH]c2ccc(S(=O)(=O)Nc3ccc(Cl)c(Cl)c3)cc2o1")
51.5

Now, please, on to the next compound.
Return reported inhibition at 10 µM; argument: `N#Cc1ccc(NC(=O)Nc2ccc(Cl)cc2)cc1`
23.3

---

Listed next: entries and their corresponding Inhibition of cleavage of Ebola peptide by Cathepsin-L.
Biological target: cathepsin L (Homo sapiens, UniProt P07711)
Format: biochemical
Set-up: human cathepsin L purified from human liver (Sigma Aldrich); purchased Sigma Aldrich; host or cells: human liver (tissue-purified)
# value in %; strip the unit string

A selection of reference data follows.
>>> measured("O=C(Nc1ccc2c(c1)OCO2)c1cc(-c2cccnc2)nc2ccc(Cl)cc12")
22
>>> measured("Cc1c(C#N)c2ccccc2n1CC(=O)NCc1ccc2c(c1)OCO2")
4.6
>>> measured("CNS(=O)(=O)c1ccc(NC(=O)Nc2ccc(F)c(Cl)c2)cc1")
1.8
>>> measured("Cl.c1ccc(CNC2CCCc3c2[nH]c2ccc(-c4ccccc4)cc32)cc1 (stereo not drawn)")
43
>>> measured("CN(C)c1ccc(C(O)(c2ccc(N(C)C)cc2)c2ccc(N(C)C)cc2)cc1")
31.8
>>> measured("Cc1cnn(CCCNC(=O)c2cc(-c3cccnc3)nc3ccc(Cl)cc23)c1")
14

Return reported Inhibition of cleavage of Ebola peptide by Cathepsin-L; argument: `COc1ccc(OC)c(NC(=O)Nc2ccc(C(F)(F)F)cc2)c1`
9.6

Subsequent entry: `O=C(Nc1ccc(S(=O)(=O)N2CCOCC2)cc1)Nc1ccc(F)c(Cl)c1`
−6.3

Subsequent entry: `N#CSc1ccc(NC(=O)CSc2nc3ccccc3[nH]2)cc1`
15

Subsequent entry: `N#Cc1ccc(NC(=O)Nc2ccc(Cl)cc2)cc1`
33.4

Subsequent entry: `O=c1[nH]c2ccc(S(=O)(=O)Nc3ccc(Cl)c(Cl)c3)cc2o1`
36

Subsequent entry: `Nc1ccc2[nH]c3ccccc3c2c1`
6.1

Subsequent entry: `O=C(Nc1cccnc1)c1cc2cc(Br)ccc2oc1=O`
20

Subsequent entry: `O=C(Nc1ccc(F)c(Cl)c1)Nc1nnc(C(F)(F)F)s1`
−12.3

Subsequent entry: `O=C(Nc1nc(-c2ccccc2)cs1)c1cc(-n2cnnc2)ccc1Cl`
−0.7

---

Listed next: entries and their corresponding Inhibition of cleavage of Hendra peptide by Cathepsin-L.
Biological target: cathepsin L (Homo sapiens)
Format: biochemical
Design: human cathepsin L purified from human liver (Sigma Aldrich); purchased Sigma Aldrich; host or cells: human liver (tissue-purified)

>>> measured("Cl.c1ccc(CNC2CCCc3c2[nH]c2ccc(-c4ccccc4)cc32)cc1 (centres unmarked) [Compound 5219666]")
"54.6%"
>>> measured("Cc1cc(C(=O)Nc2cccnc2)sc1-c1ccccc1 [Compound 7948346]")
"17.7%"
>>> measured("Cc1cnn(CCCNC(=O)c2cc(-c3cccnc3)nc3ccc(Cl)cc23)c1 [Compound 7923236]")
"32.6%"

Now, please, on to the next molecule.
Return reported Inhibition of cleavage of Hendra peptide by Cathepsin-L; argument: Nc1ccc2[nH]c3ccccc3c2c1 [Compound 5172420]
8.20%

---

Listed next: entries and their corresponding Inhibition of cleavage of SARS peptide by Cathepsin-L.
Biological target: UniProt P07711
Format: biochemical
Parameters: human cathepsin L purified from human liver (Sigma Aldrich); purchased Sigma Aldrich; host or cells: human liver (tissue-purified)
# value in %; strip the unit string

>>> measured("N#CSc1ccc(NC(=O)CSc2nc3ccccc3[nH]2)cc1 [Compound 6572698]")
66.1
>>> measured("Nc1ccc2[nH]c3ccccc3c2c1 [Compound 5172420]")
42.29
>>> measured("O=C(Nc1ccc2c(c1)OCO2)c1cc(-c2cccnc2)nc2ccc(Cl)cc12 [Compound 7924029]")
60
>>> measured("Cc1c(C#N)c2ccccc2n1CC(=O)NCc1ccc2c(c1)OCO2 [Compound 6874634]")
65.6
>>> measured("Cc1cnn(CCCNC(=O)c2cc(-c3cccnc3)nc3ccc(Cl)cc23)c1 [Compound 7923236]")
60.2

Return reported Inhibition of cleavage of SARS peptide by Cathepsin-L; argument: N#Cc1ccc(NC(=O)Nc2ccc(Cl)cc2)cc1 [Compound 7910528, 1-(4-chlorophenyl)-3-(4-cyanophenyl)urea]
56.5

---

Biological target: cathepsin L (Homo sapiens, UniProt P07711)
Type: biochemical
Design: human cathepsin L purified from human liver (Sigma Aldrich); purchased Sigma Aldrich; host or cells: human liver (tissue-purified)
Listed next: entries and their corresponding percentage inhibition against human Pro-NPY peptide.
# value in %; strip the unit string

Short answer please: percentage inhibition against human Pro-NPY peptide, cathepsin L (Homo sapiens, UniProt P07711), entry O=C(Nc1cccc(C(F)(F)F)c1)Nc1ccc(Cl)c(Cl)c1 [Compound 5182554]
14.8

Subsequent entry: O=C(Nc1nc(-c2ccccc2)cs1)c1cc(-n2cnnc2)ccc1Cl [Compound 7931205]
24.9

Subsequent entry: Cl.c1ccc(CNC2CCCc3c2[nH]c2ccc(-c4ccccc4)cc32)cc1 (stereo not shown) [Compound 5219666]
44.4

Subsequent entry: O=C(Nc1ccc2c(c1)OCO2)c1cc(-c2cccnc2)nc2ccc(Cl)cc12 [Compound 7924029]
18.6
